Tested on: IGROV1 ovarian
assay.explanation: NCI-60 one-dose screen, 48 h
experimental.parameters: 10 µM unless noted
Compounds without any hit were thinned out: in the full panel of roughly 83,000, 20% have a hit. Active and inactive are the calls of the source. The calls were made as follows: active = growth percent below 10; inactive = the rest.
The reply should name one outcome from active, inactive

Consider the worked cases shown below.
>>> group("CN(C)c1ccc(Nc2cc(-c3cccc(OC(F)(F)F)c3)nc3ccc(N4CCCC4)cc23)cc1")
"active"
>>> group("CCNc1nc(-c2ccc(Cl)c(OC)c2)c(-c2ccnc(NCCCNS(=O)(=O)c3ccc(Cl)cc3)n2)s1")
"inactive"
>>> group("C=CCn1c(SCC(=O)Nc2ccc(C(=O)/C=C/c3cc4cc(OC)ccc4nc3Cl)cc2)nnc1-c1ccc(Br)cc1")
"inactive"

(Q) Recorded call for Cc1ccc(-c2cc(-c3ccc(Cl)cc3)nc(NC(=O)c3cccnc3)n2)cc1 ?
(A) inactive

(Q) Each compound tested received a call. Report the one for O=C(Cn1c(=O)sc2ccccc21)NNS(=O)(=O)c1ccccc1[N+](=O)[O-] .
(A) inactive

====

Give growth for every item shown.
Test system: HCC-2998 colon
assay.explanation: NCI-60 one-dose screen, 48 h (100 = growth as untreated, 0 = no growth, -100 = all killed)
experimental.parameters: 10 µM unless noted
The panel holds about 83,000 compounds, 20% with a hit somewhere; the sample as a whole holds those more often.
Numbers only, in %.

# example entries with known answers
>>> observed("CNC(=O)c1cc(Oc2ccc3nc(NC(C)=O)sc3c2)ccn1")
107
>>> observed("Brc1c2c(c(Br)c3ccccc13)CCCC2")
110
>>> observed("Cc1cc2c(O)c(-c3cc(Cl)ccc3Cl)c3sc(=O)oc3c2cc1C")
102
>>> observed("COc1ccc2c(O)c(/C=C3\\N=Nc4ncccc43)oc2c1C[C@H]1CCNC[C@H]1F")
0.205

Read the next record carefully.
(Q) Need growth of CCOC(=O)c1ccc2[nH]c(O)c(C(=Nc3ccc(N(C)C(=O)CN4CCN(C)CC4)cc3)c3ccccc3)c2c1 , thanks.
(A) -55.2

====

Give measured growth for each item. Keep answers brief.
Tested on: TK-10 renal
assay.explanation: NCI-60 one-dose screen, 48 h (100 = growth as untreated, 0 = no growth, -100 = all killed)
experimental.parameters: 10 µM unless noted
Procedure: Growth inhibition of the TK-10 human tumor cell line is measured as a screen for anti-cancer activity. Cells are grown in 96 well plates and exposed to the test compound for 48 hours. Compounds are tested at a single concentration, which is 10^-5 M for most compounds. The reported endpoint is percent growth (GI% or GIPRCNT), where numbers from 0 - 100% represent growth inhibition, and numbers from -100% - 0 represent cell death. For example, a value of 40 represents 60% growth inhibition. […]
This is part of a sample that, as a whole, favours compounds with a hit. Of some 83,000 tested, about 20% had one in any assay. Active and inactive are the calls of the source. Rule for the calls: active = growth percent below 10; inactive = the rest.

Recorded growth, per entry:
>>> observed("c1ccc(CNc2c3ccccc3nc3ccccc23)cc1")
"48.7% (inactive)"
>>> observed("CCN(CC)CCOc1ccc(-c2c(-c3ccccc3)c(=O)oc3ccccc23)cc1")
"95.9% (inactive)"
>>> observed("COc1cc2oc(-c3cccc(NC(=O)c4cccc(Br)c4)c3)cc(=O)c2c(OC)c1OC")
"65.5% (inactive)"
>>> observed("COP(=O)(OC)C(C)(C)CC(=O)CC(C#N)(C#N)C(C#N)C#N")
"104% (inactive)"

Here's the next entry for you.
(Q) So what does the record say about growth for COc1cc2c(c(OC)c1OC)C(=O)CC(c1cccc(NC(=O)c3ccc(Br)cc3)c1)O2 (stereo not given) ?
(A) 61.7% (inactive)
